Target: human glucagon receptor (human) (UniProt P47871)
Sequence (P47871 26-477): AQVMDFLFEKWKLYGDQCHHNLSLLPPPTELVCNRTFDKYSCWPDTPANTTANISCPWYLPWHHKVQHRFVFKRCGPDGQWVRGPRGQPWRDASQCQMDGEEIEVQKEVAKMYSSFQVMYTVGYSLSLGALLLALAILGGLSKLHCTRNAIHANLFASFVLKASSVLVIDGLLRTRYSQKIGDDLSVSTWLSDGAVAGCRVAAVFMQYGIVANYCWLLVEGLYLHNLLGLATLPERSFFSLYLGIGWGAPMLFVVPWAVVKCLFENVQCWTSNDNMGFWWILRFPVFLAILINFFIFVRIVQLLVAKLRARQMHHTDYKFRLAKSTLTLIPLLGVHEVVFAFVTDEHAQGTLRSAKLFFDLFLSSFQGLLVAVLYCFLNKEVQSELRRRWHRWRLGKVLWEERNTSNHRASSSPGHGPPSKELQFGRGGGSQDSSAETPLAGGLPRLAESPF
Test: cell-based or functional assay
Starred links: 1 amine or outer side, 2 acyl side, 3 side chain; linkers in the order of their positions; H or OH if unused. Non-standard residues stand in square brackets, D forms with d. Groups on a side chain read outwards from the residue. No end group written: not given here. *: point of attachment. C20 diacid = O=C(O)CCCCCCCCCCCCCCCCCCC(=O)*; C18 diacid = O=C(O)CCCCCCCCCCCCCCCCC(=O)*; αMePhe(2-F) = C[C@](N)(Cc1ccccc1F)C(=O)O; γGlu = O=C(O)[C@H](CCC(=O)[*:2])N[*:1]; αMeL = CC(C)C[C@](C)(N)C(=O)O; Dap = NC[C@H](N)C(=O)O; AEEA = NCCOCCOCC(=O)O; Aib = CC(C)(N)C(=O)O
measured-property: Relative cAMP EC50 (nM)
A number alone suffices; assume nM.

// known answers, use as guide
[
  {
    "binder": "YXQGTXTSDYXSLLDXKAQXXFIEXLLEGGPSSGEPPPE (synthetic construct; SITE 2: note = 2-Aminoisobutyric Acid; SITE 6: note = alpha-methyl-L-phenylalanine; SITE 11: note = alpha-methyl-L-serine; SITE 16: note = L-ornithine; SITE 17: note = Lysine is chemically modified through conjugation of the epsilon-amino group of the Lysine side chain with (2-[) [Example 390]",
    "measured-property": "Relative cAMP EC50",
    "measured-value": 3.08
  },
  {
    "binder": "YXQGTFTSDXXQXLDXKAQXQFIEXLIAXGPSSGEPPPSGGGE (non-natural residues; lysine acylated with C18 diacid; C-terminal amide; synthetic construct; SITE 2: note = 2-Aminoisobutyric Acid; SITE 10: note = 3-(4-Pyridyl)-L-alanine; SITE 11: note = alpha-methyl-L-serine; SITE 13: note = alpha-methyl-leucine; SITE 16: note = L-ornithine; SITE 17: note = Lysine is chemically modified through conjugation of the epsilon-amino group) [Example 1182]",
    "measured-property": "Relative cAMP EC50",
    "measured-value": 1.24
  },
  {
    "binder": "Y[Aib]QGT[αMePhe(2-F)]TSDYSILLDAQAAKEFIEYLIEGGPSSGEPPPSEG-NH2 (not fully specified (residue 20)) [Example 351]",
    "measured-property": "Relative cAMP EC50",
    "measured-value": 12.1
  }
]

// query Tell us which Relative cAMP EC50 value is on record for YXQGTFTSDFSKXLDKKAQXAFIEYLLAGGPSSGEPPPSGS (non-natural residues, acylation, C-terminal amide; synthetic construct; SITE 2: note = 2-Aminoisobutyric Acid; SITE 13: note = alpha-methyl-leucine; SITE 17: note = Lysine is chemically modified through conjugation of the epsilon-amino group of the Lysine side chain with (2-[2-(2-Amino-ethoxy)-ethoxy]-acetyl)-(gamma-Glu)-CO-(CH2) 18-CO2H; SITE 20: n) [Example 8]
// result 6.65

// query Kindly indicate its recorded Relative cAMP EC50. Item: YXQGTXTSDXSILLDKKAQXAFIEYLLEGGPSSGAPPPS (synthetic construct; SITE 2: note = 2-Aminoisobutyric Acid; SITE 6: note = alpha-methyl-L-phenylalanine; SITE 10: note = 3-(4-Pyridyl)-L-alanine; SITE 17: note = Lysine is chemically modified through conjugation of the epsilon-amino group of the Lysine side chain with (2-[2-(2-Amino-ethoxy)-ethoxy]-) [Example 418]
// result 4.7

// query Please report Relative cAMP EC50 for the following binder: YXQGTFTSDXSKXLDKKAQXAFIEYLIEXGPSSGAPPPSGSEEE (synthetic construct; SITE 2: note = 2-Aminoisobutyric Acid; SITE 10: note = 3-(4-Pyridyl)-L-alanine; SITE 13: note = alpha-methyl-leucine; SITE 17: note = Lysine is chemically modified through conjugation of the epsilon-amino group of the Lysine side chain with (gamma-Glu)2-CO-(CH2)16-CO2H; SITE 20:) [Example 906]
// result 14.7

// query Provide measured Relative cAMP EC50 value, entry: Y[Aib]QGTFTSDYSK[αMeL]LDKK([AEEA-γGlu-C20 diacid])AQQAFIQWLIEGGPSSGEPPPSEG-NH2 [Example 314]
// result 3.7

// query Provide measured Relative cAMP EC50 value, entry: YXQGTFTSDFSKXLDKKAQXAFIEYLLEXGPSSGEPPPSEG (Aib, αMeL; acylated Lys; C-terminal amide; synthetic construct; SITE 2: note = 2-Aminoisobutyric Acid; SITE 13: note = alpha-methyl-leucine; SITE 17: note = Lysine is chemically modified through conjugation of the epsilon-amino group of the Lysine side chain with (2-[2-(2-Amino-ethoxy)-ethoxy]-acetyl)-(gamma-Glu)-CO-(CH2) 16-CO2H; SITE 20: n) [Example 46]
// result 1.53

// query Quickly give me recorded Relative cAMP EC50 for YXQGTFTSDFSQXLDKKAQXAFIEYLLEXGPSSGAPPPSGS (synthetic construct; SITE 2: note = 2-Aminoisobutyric Acid; SITE 13: note = alpha-methyl-leucine; SITE 17: note = Lysine is chemically modified through conjugation of the epsilon-amino group of the Lysine side chain with (gamma-Glu)2-CO-(CH2)16-CO2H; SITE 20: note = 2-Aminoisobutyric Acid; SITE 29:) [Example 784]
// result 5.21

// query For the binder YXQGTFTSDFSKXLDKKAQXAFIEYLLAGAPSSGAPPPSEG (Aib, αMeL; acylated lysine; C-terminal amide; synthetic construct; SITE 2: note = 2-Aminoisobutyric Acid; SITE 13: note = alpha-methyl-leucine; SITE 17: note = Lysine is chemically modified through conjugation of the epsilon-amino group of the Lysine side chain with (2-[2-(2-Amino-ethoxy)-ethoxy]-acetyl)-(gamma-Glu)-CO-(CH2) 18-CO2H; SITE 20: n) [Example 24] , give its reported Relative cAMP EC50.
// result 9.66

// query Check the records and state Relative cAMP EC50 for Y[Aib]QGTFTSDFS[Dap][αMeL]LDKK([AEEA-γGlu-C18 diacid])AQ[Aib]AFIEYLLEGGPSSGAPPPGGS-NH2 (ends and bridges not checked) [Example 68]
// result 8.55

// query Complete the entry with Relative cAMP EC50 for YXQGTXTSDXXIXLDXKAQXEFIEXLIEGGPSSGEPPPTGE (Non-natural residues; K acylated AEEA-γGlu-C18 diacid; C-terminal amide; synthetic construct; SITE 2: note = 2-Aminoisobutyric Acid; SITE 6: note = alpha-methyl-2-fluoro-L-phenylalanine; SITE 10: note = 3-(4-Pyridyl)-L-alanine; SITE 11: note = alpha-methyl-L-serine; SITE 13: note = alpha-methyl-leucine; SITE 16: note = L-ornithine; SITE 17: note = Lysine is chemically mo) [Example 1143]
// result 1.42

// query For YXQGTFTSDXSXXLDKKAQXAFIEYLIAGGESSGAPPPSGSEE (synthetic construct; SITE 2: note = 2-Aminoisobutyric Acid; SITE 10: note = 3-(4-Pyridyl)-L-alanine; SITE 12: note = L-ornithine; SITE 13: note = alpha-methyl-leucine; SITE 17: note = Lysine is chemically modified through conjugation of the epsilon-amino group of the Lysine side chain with (gamma-Gl)) [Example 964] , write its Relative cAMP EC50.
// result 2.75

// query Return Relative cAMP EC50 for the following binder: YXQGTFTSDFSXXLDKKAQXAFIEWLLEGGPSSGAPXPSGE (synthetic construct; SITE 2: note = 2-Aminoisobutyric Acid; SITE 12: note = L-ornithine; SITE 13: note = alpha-methyl-leucine; SITE 17: note = Lysine is chemically modified through conjugation of the epsilon-amino group of the Lysine side chain with (2-[2-(2-Amino-ethoxy)-ethoxy]-acetyl)-(gamma-Glu)) [Example 137]
// result 4.43

// query Given YXQGTFTSDFSQXLDXKAQXAFIEYLLEAGPSSGAPPPSGSEEE (synthetic construct; SITE 2: note = 2-Aminoisobutyric Acid; SITE 13: note = alpha-methyl-leucine; SITE 16: note = L-ornithine; SITE 17: note = Lysine is chemically modified through conjugation of the epsilon-amino group of the Lysine side chain with (2-[2-(2-Amino-ethoxy)-ethoxy]-acetyl)-(gamma-Glu)) [Example 1038] , respond with its Relative cAMP EC50.
// result 5.93

// query Note Relative cAMP EC50 for the binder shown: YXQGTFTSDFSRXLDKKAQXAFIEYLIEXGESSGAPPPSGE (non-natural residues; lipidated Lys; C-terminal amide; synthetic construct; SITE 2: note = 2-Aminoisobutyric Acid; SITE 13: note = alpha-methyl-leucine; SITE 17: note = Lysine is chemically modified through conjugation of the epsilon-amino group of the Lysine side chain with (2-[2-(2-Amino-ethoxy)-ethoxy]-acetyl)-(gamma-Glu)-CO-(CH2) 16-CO2H; SITE 20: n) [Example 231]
// result 2.12
